Value source: patent US20240002516A1

For each entry below, report its koff value.
tested system: T1, extracellular domain (ECD) of human TrkA protein, N-terminal flag tag and C-terminal His tag (PHA) (human, UniProt P04629 33-423)
T1 construct: Made in 293-F cells and purified by IMAC; also called TrkA ECD protein; TrkA (ECD); not shown: flag tag at the N-terminus (after the signal peptide); His tag at the C-terminus
T1 sequence (P04629 33-423): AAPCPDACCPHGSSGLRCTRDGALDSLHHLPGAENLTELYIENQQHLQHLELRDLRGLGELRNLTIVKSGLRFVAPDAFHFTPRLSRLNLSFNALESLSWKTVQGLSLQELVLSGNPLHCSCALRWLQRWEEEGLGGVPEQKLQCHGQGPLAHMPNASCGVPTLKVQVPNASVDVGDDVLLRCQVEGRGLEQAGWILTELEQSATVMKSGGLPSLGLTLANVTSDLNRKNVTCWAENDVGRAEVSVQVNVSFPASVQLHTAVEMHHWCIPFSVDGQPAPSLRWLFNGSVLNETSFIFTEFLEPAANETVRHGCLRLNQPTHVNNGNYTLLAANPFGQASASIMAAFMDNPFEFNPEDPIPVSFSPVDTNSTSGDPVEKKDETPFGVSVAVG
experimental details: BLI (ForteBio)
Number only, in s⁻¹; omit the unit.

Query (binder): PHD30 (antibody, V domains shown) VH: QVQLVQSGAEVKKPGASVKVSCKASGYTFTEYWMHWVRQAPGQGLEWIGTIYPGNSDSSFAQKFQGRVTLTRDTSTSTAYMELSSLRSEDTAVYYCTRFYYEDWYFDVWGQGTTVTVSS VL: DIQMTQSPSSLSASVGDRVTITCRASSSISYLYWFQQKPGKAPKPLIYRTSSLGSGVPSRFSGSGSGTDYTLTISSLQPEDFATYYCQQYHSYPPTFGGGTKVEIK ; field requested: koff
0.00351

Requested field: koff. Item: PHD28 (antibody, V domains shown) VH: QVQLVQSGAEVKKPGASVKVSCKASGYTFTTYWMHWVRQAPGQGLEWIGTIYPGNSDTSLAQKFQGRVTLTRDTSTSTAYMELSSLRSEDTAVYYCTRFYFEDWYFDVWGQGTTVTVSS VL: DIQMTQSPSSLSASVGDRVTITCRASSSISWLYWFQQKPGKAPKPLIYYTSSLGSGVPSRFSGSGSGTDYTLTISSLQPEDFATYYCQQWHSYPPTFGGGTKVEIK
0.00764

I'd like to know its koff. The binder in question is PHD24 (antibody, V domains shown) VH: QVQLVQSGAEVKKPGASVKVSCKASGYTFTTYWMHWVRQAPGQGLEWIGTIYPGNSDTSLAQKFQGRVTLTRDTSTSTAYMELSSLRSEDTAVYYCTRFYFEDWYFDVWGQGTTVTVSS VL: DIQMTQSPSSLSASVGDRVTITCRASSSISWLYWFQQKPGKAPKPLIYYTSTLGSGVPSRFSGSGSGTDYTLTISSLQPEDFATYYCQQWHSYPPTFGGGTKVEIK
0.00518
